The reader will find reported pEC50 values listed item by item below.
# ASSAYED SYSTEM: Melanocortin receptor 4 (Homo sapiens, UniProt P32245)
# Sequence (P32245 whole entry): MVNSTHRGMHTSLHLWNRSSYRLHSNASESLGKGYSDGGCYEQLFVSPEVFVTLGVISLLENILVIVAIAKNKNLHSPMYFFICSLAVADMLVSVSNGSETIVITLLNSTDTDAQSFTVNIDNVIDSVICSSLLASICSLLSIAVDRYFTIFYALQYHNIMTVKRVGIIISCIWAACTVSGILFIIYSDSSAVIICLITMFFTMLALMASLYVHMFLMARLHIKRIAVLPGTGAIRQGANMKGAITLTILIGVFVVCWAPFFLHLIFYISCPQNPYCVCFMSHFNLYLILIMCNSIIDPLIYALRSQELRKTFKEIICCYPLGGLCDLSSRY
# PROTOCOL TEXT: Inhibition concentration (binding affinity) exhibited against human melanocortin receptor 4 by radio labeled ligand assay (Displacement of [125I]NDP-alpha-MSH from the human receptors expressed in CHO cells)
# Type: functional, cell-based
// returns pEC50 (minus log10 of molar concentration), number only

Guide cases for pEC50, answers given:
COMPOUND	pEC50
CC(C)(C)NC(=O)C1(C2CCCCC2)CCN(C(=O)[C@@H](Cc2ccc(F)cc2)NC(=O)[C@H]2C[C@@H]3CC[C@@H]2NC3)CC1	7.28
CN1C[C@@H]2CC[C@H]1[C@@H](C(=O)N[C@H](Cc1ccc(F)cc1)C(=O)N1CCC(C(=O)NC(C)(C)C)(C3CCCCC3)CC1)C2	7.47
CC(C)(C)NC(=O)C1(C2CCCCC2)CCN(C(=O)[C@@H](Cc2ccc(F)cc2)NC(=O)C2CC3CCC2NC3)CC1 (single isomer, unassigned)	7.70

Query: Name the reported pEC50 value associated with the compound CC(C)(C)NC(=O)C1(C2CCCCC2)CCN(C(=O)[C@@H](Cc2ccc(F)cc2)NC(=O)[C@H]2C[C@H]3CC[C@@H]2NC3)CC1
Response: 6.62
